// data source = the supplement of paper PMC12669032

test system: Streptococcus salivarius; test: growth AUC relative to DMSO control (median of replicates) (fraction); higher = more growth (less inhibition), active = hit call of the paper; conditions: 20 µM; 24 h
Property: growth AUC; scope: individual compounds
A bare number is all that is needed in reply.

| Compound | Assay System | Quantity Measured | Quantitative Readout |
| --- | --- | --- | --- |
| CCOc1ccc(C(C)(C)COCc2cccc(Oc3ccccc3)c2)cc1 | Streptococcus salivarius | growth AUC | 0.983 |
| O=C(O)COc1cc(Cl)c(Cl)cc1Cl | Streptococcus salivarius | growth AUC | 1.02 |
| CN(C(=O)COc1nc2ccccc2s1)c1ccccc1 | Streptococcus salivarius | growth AUC | 1 |
| CCNc1nc(Cl)nc(NCC)n1 | Streptococcus salivarius | growth AUC | 1.03 |
| COP(=S)(OC)Oc1cc(Cl)c(I)cc1Cl | Streptococcus salivarius | growth AUC | 0.936 |
| CC(=O)CC(c1ccc(Cl)cc1)c1c(O)c2ccccc2oc1=O (stereo unspecified) | Streptococcus salivarius | growth AUC | 0.987 |

Task item: Item under review: `CNC(=O)ON=C(CSC)C(C)(C)C` . Reported growth AUC?
Reply: 1.02

Task item: Consider the compound ClC1=C(Cl)C2(Cl)C3COCC3C1(Cl)C2(Cl)Cl (stereo unspecified) and give its measured growth AUC.
Reply: 0.915

Task item: Reported growth AUC, compound `CCN(Cc1ccc(Cl)nc1)/C(=C/[N+](=O)[O-])NC` : ____
Reply: 1

Task item: Sample `CC(C)NC(=O)N1CC(=O)N(c2cc(Cl)cc(Cl)c2)C1=O` — what was its growth AUC?
Reply: 1.05

Task item: Tell me the measured growth AUC of CC1(C)C(/C=C(\Cl)C(F)(F)F)C1C(=O)OC(C#N)c1cccc(Oc2ccccc2)c1 (stereo unspecified) , please.
Reply: 0.981
